The reported numbers originate from the supplement of paper PMC10567573.

B1: TRIM63 (parent)
chain: QEKKLSFIEALIQQYQEQLDKSTK

variants of: B1; test: protein stability index of a GFP-peptide fusion (GPS, HEK-293T) (PSI 1-6); higher = more stable; conditions: c terminus: a fixed tail appended;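 also: lentivirally expressed fusions sorted by FACS into six bins by GFP to DsRed ratio, PSI derived from sequencing read proportions per bin multiplied by bin number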
Categories are defined by ranges of protein stability index, namely LOW (below 2), MEDIUM (2 to below 3), HIGH (3 or more)

Below are worked cases with known answers.
K4S
MEDIUM
S22V
MEDIUM

Read the next record carefully.
Query: // return the class label for S6G
Response: MEDIUM
